target: human full-length recombinant PKC βII (Homo sapiens, UniProt P05771); construct: Active human full-length recombinant PKC βII; purchased Invitrogen GmbH, Darmstadt, Germany; assay: Determination of PKC βII inhibition (Caliper mobility-shift kinase assay, Fluorescein-RFARKGSLRQKNV peptide substrate); type: biochemical; details: example compounds at a final concentration of 1.14 μM (±0.15 μM)
Sequence (P05771 1-673 isoform P05771-2): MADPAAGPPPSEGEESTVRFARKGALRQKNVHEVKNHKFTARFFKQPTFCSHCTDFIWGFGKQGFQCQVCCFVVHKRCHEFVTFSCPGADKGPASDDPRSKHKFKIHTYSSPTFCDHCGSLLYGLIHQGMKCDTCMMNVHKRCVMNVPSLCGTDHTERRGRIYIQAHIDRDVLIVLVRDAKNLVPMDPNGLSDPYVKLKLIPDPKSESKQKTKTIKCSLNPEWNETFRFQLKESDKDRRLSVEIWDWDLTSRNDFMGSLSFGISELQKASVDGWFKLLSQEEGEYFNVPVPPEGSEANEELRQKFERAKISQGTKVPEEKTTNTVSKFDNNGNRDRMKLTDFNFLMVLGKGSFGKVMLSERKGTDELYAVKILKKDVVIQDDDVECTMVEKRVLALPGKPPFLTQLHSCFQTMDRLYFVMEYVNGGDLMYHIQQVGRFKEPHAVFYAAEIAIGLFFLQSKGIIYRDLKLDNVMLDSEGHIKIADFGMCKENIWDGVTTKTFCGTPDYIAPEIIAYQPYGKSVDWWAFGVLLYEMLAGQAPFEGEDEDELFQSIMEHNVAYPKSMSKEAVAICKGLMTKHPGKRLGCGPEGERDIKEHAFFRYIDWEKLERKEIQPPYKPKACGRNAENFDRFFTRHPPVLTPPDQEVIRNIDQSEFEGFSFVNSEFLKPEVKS
MEASUREMENT LABEL: inhibition at 1.14 µM

Observe how each entry below is paired with its result.
Cc1n[nH]c2nc(-c3ccc(O)cc3)cc(C(=O)N3CCC4(CC3)CNCCO4)c12 = 29%
Cc1n[nH]c2nc(-c3ccc(O)cc3F)cc(C(=O)N3CCNC(C)(C)C3)c12 = 88%
Cc1n[nH]c2nc(-c3ccc(O)c(F)c3)cc(C(=O)NCC3CCC(=O)N3)c12 (stereo not shown) = 36%

Query block: Quick one: inhibition at 1.14 µM for Cc1n[nH]c2nc(-c3ccc(O)cc3)cc(C(=O)NC34CNCC3C4)c12 (stereo in doubt) ?
Result block: 92%

Query block: Quick one: inhibition at 1.14 µM for Cc1n[nH]c2nc(-c3ccc(O)cc3)cc(C(=O)N(C)CCNC(C)(C)C)c12 ?
Result block: 38%

Query block: Quick one: inhibition at 1.14 µM for CCC1(NC(=O)c2cc(-c3ccc(O)cc3)nc3[nH]nc(C)c23)CCNCC1 ?
Result block: 97%

Query block: Quick one: inhibition at 1.14 µM for Cc1n[nH]c2nc(-c3ccc(O)cc3)cc(C(=O)N3CC[C@@H](C4(N)CC4)C3)c12 ?
Result block: 71%

Query block: Quick one: inhibition at 1.14 µM for CCOc1cc(-c2cc(C(=O)N3CCNCC3)c3c(C)n[nH]c3n2)ccc1O ?
Result block: 35%

Query block: Quick one: inhibition at 1.14 µM for Cc1n[nH]c2nc(-c3ccc(O)cc3F)cc(C(=O)N3CCN[C@@H](C)C3)c12 ?
Result block: 100%

Query block: Quick one: inhibition at 1.14 µM for Cc1n[nH]c2nc(-c3ccc(O)cc3)cc(C(=O)N3CC4CCCCN4CC3C)c12 (stereo not shown) ?
Result block: 76%

###

Here, each record is paired with measured inhibition at 1.14 µM data.
target: human full-length recombinant PKC βII (Homo sapiens); construct: Active human full-length recombinant PKC βII; purchased Invitrogen GmbH, Darmstadt, Germany; assay: Determination of PKC βII inhibition (Caliper mobility-shift kinase assay, Fluorescein-RFARKGSLRQKNV peptide substrate); type: biochemical; details: example compounds at a final concentration of 1.14 μM (±0.15 μM)
Answer in %, number only, no unit symbol.

Observe how each entry below is paired with its result.
Cc1n[nH]c2nc(-c3ccc(O)c(F)c3)cc(C(=O)N3CCC4(CC3)CNCCO4)c12 [Example 342] = 60
O=C(N[C@@H]1CN2CCC1CC2)c1cc(-c2ccc(O)cc2)nc2[nH]nc(C(F)(F)F)c12 [Example 412] = 23
CC[C@@H]1CN(C(=O)c2cc(-c3ccc(O)cc3F)nc3[nH]nc(C)c23)[C@@H](C)CN1 [Example 446] = 98
Cc1n[nH]c2nc(-c3ccc(O)cc3)cc(C(=O)N3CCC(C)(N)C3)c12 (stereo not drawn) [Example 122] = 89

Query block: Quick one: inhibition at 1.14 µM for Cc1n[nH]c2nc(-c3ccc(O)cc3)cc(C(=O)N(C)C3CCN(C)CC3)c12 [Example 272] ?
Result block: 85

Query block: Quick one: inhibition at 1.14 µM for N[C@H]1CCN(C(=O)c2cc(-c3ccc(O)cc3)nc3[nH]nc(C(F)(F)F)c23)C1 [Example 404] ?
Result block: 31

###

target: human full-length recombinant PKC βII (Homo sapiens); construct: Active human full-length recombinant PKC βII; purchased Invitrogen GmbH, Darmstadt, Germany; experiment: Determination of PKC βII inhibition (Caliper mobility-shift kinase assay, Fluorescein-RFARKGSLRQKNV peptide substrate); type: biochemical; conditions: example compounds at a final concentration of 1.14 μM (±0.15 μM)
MEASUREMENT LABEL: inhibition at 1.14 µM
Please answer using the number first and the unit second.

Observe how each entry below is paired with its result.
Cc1n[nH]c2nc(-c3ccc(O)cc3F)cc(C(=O)N3CCNCC34CCCC4)c12 = 98%
Cc1n[nH]c2nc(-c3ccc(O)cc3F)cc(C(=O)N3C[C@@H](C)N(CC4CCNCC4)C[C@@H]3C)c12 = 90%
Cc1n[nH]c2nc(-c3ccc(O)c(F)c3)cc(C(=O)N3CCC4(CCNC4)CC3)c12 = 53%

Query block: Quick one: inhibition at 1.14 µM for Cc1n[nH]c2nc(-c3ccc(O)cc3)cc(C(=O)NCC(C)N3CCCC3)c12 (stereo not shown) ?
Result block: 65%

###

biological target: human full-length recombinant PKC βII (Homo sapiens, UniProt P05771); construct: Active human full-length recombinant PKC βII; purchased Invitrogen GmbH, Darmstadt, Germany; assay: Determination of PKC βII inhibition (Caliper mobility-shift kinase assay, Fluorescein-RFARKGSLRQKNV peptide substrate); format: biochemical; conditions: example compounds at a final concentration of 1.14 μM (±0.15 μM)
MEASUREMENT LABEL: inhibition at 1.14 µM

Observe how each entry below is paired with its result.
Cc1n[nH]c2nc(-c3ccc(O)cc3)cc(C(=O)N3CCC(N)C3)c12 (stereo not drawn) = 88%
Cc1n[nH]c2nc(-c3ccc(O)c(F)c3)cc(C(=O)N(C)C3CCNCC3)c12 = 61%
CCCC[C@H]1CN(C(=O)c2cc(-c3ccc(O)c(F)c3)nc3[nH]nc(C)c23)CCN1 = 85%
Cc1cc(O)ccc1-c1cc(C(=O)N2CCNCC2c2ccc(F)cc2F)c2c(C)n[nH]c2n1 (stereo not drawn) = 94%
COC(=O)[C@H]1CNCCN1C(=O)c1cc(-c2ccc(O)c(F)c2)nc2[nH]nc(C)c12 = 80%
Cc1n[nH]c2nc(-c3ccc(O)cc3)cc(C(=O)N3CCNCC3c3cccnc3)c12 (stereo not drawn) = 99%

Query block: Quick one: inhibition at 1.14 µM for CCc1n[nH]c2nc(-c3ccc(O)cc3)cc(C(=O)NC3CC4(CCNCC4)c4ccccc43)c12 (stereo not drawn) ?
Result block: 77%

Query block: Quick one: inhibition at 1.14 µM for Cc1n[nH]c2nc(-c3ccc(O)cc3)cc(C(=O)N3CCNCC3C(F)(F)F)c12 (stereo not drawn) ?
Result block: 87%

Query block: Quick one: inhibition at 1.14 µM for CCc1n[nH]c2nc(-c3ccc(O)cc3)cc(C(=O)N3C[C@]4(C)CN(C)C[C@](C)(C3)C4O)c12 (stereo partly drawn) ?
Result block: 55%

###

Here, each record is paired with measured inhibition at 1.14 µM data.
molecular target: human full-length recombinant PKC βII (Homo sapiens, UniProt P05771); construct: Active human full-length recombinant PKC βII; purchased Invitrogen GmbH, Darmstadt, Germany; assay: Determination of PKC βII inhibition (Caliper mobility-shift kinase assay, Fluorescein-RFARKGSLRQKNV peptide substrate); assay type: biochemical; conditions: example compounds at a final concentration of 1.14 μM (±0.15 μM)
Answer in %, number only, no unit symbol.

Cc1n[nH]c2nc(-c3ccc(O)c(F)c3)cc(C(=O)N3CC4CCCN4CC3c3ccccc3)c12 (stereo not shown) = 34

Query block: Quick one: inhibition at 1.14 µM for Cc1n[nH]c2nc(-c3ccc(O)cc3)cc(C(=O)N3CCNC(C)(C)C3)c12 ?
Result block: 99

Query block: Quick one: inhibition at 1.14 µM for Cc1n[nH]c2nc(-c3ccc(O)cc3)cc(C(=O)NCCC3CCNCC3)c12 ?
Result block: 42

Query block: Quick one: inhibition at 1.14 µM for O=C(c1cc(-c2ccc(O)cc2)nc2[nH]nc(C(F)(F)F)c12)N1CCC2(CCNCC2)C1 ?
Result block: 23

###

target: human full-length recombinant PKC βII (Homo sapiens, UniProt P05771); construct: Active human full-length recombinant PKC βII; purchased Invitrogen GmbH, Darmstadt, Germany; experiment: Determination of PKC βII inhibition (Caliper mobility-shift kinase assay, Fluorescein-RFARKGSLRQKNV peptide substrate); format: biochemical; details: example compounds at a final concentration of 1.14 μM (±0.15 μM)
MEASUREMENT LABEL: inhibition at 1.14 µM (%)
Answer in %, number only, no unit symbol.

Observe how each entry below is paired with its result.
Cc1n[nH]c2nc(-c3ccc(O)cc3)cc(C(=O)NCC3CCNC3)c12 (stereo not shown) = 92
Cc1n[nH]c2nc(-c3ccc(O)cc3)cc(C(=O)N3CCN(C(=O)C4CCCO4)CC3)c12 (stereo not shown) = 88
Cc1n[nH]c2nc(-c3ccc(O)cc3)cc(C(=O)N[C@@H]3CCC[C@H]3N)c12 = 88

Could you now look at the following compound, please?
Query block: Quick one: inhibition at 1.14 µM for Cc1n[nH]c2nc(-c3ccc(O)cc3)cc(C(=O)N3C[C@@H](C)NC[C@@H]3C)c12 ?
Result block: 92
